- System: A498 renal
- test method notes: NCI tumour cell line growth inhibition, 48 h; in the data active = GI50 below about 0.43 µM; inactive = the rest
I would appreciate it if you answered using one of these outcomes: 1 (active), 0 (inactive)

>  <compound>
COc1cccc2c1C(=O)c1c(O)c3c(c(O)c1C2=O)C[C@@](O)(/C(C)=N/NC(=O)c1cccc([N+](=O)[O-])c1)C[C@@H]3OC1CC(N)C(O)C(C)O1 (stereo partly drawn)

>  <assigned label>
0

$$$$
>  <compound>
CCCCCOC(=O)c1c(C)[nH]c(/C=C2\N=C(c3ccc[nH]3)C=C2OC)c1C

>  <assigned label>
1

$$$$

INPUT: Which outcome did this test record for the compound Clc1cccc(-c2cc(-c3ccc4c(c3)OCCO4)[nH]n2)c1 ?
OUTPUT: 0

INPUT: Hi, sorry to bother you, what did the test record for O=c1[nH]c(=O)n(Cc2ccc(C34CC5CC(CC(C5)C3)C4)c(O)c2)cc1F ?
OUTPUT: 0

INPUT: Short answer needed: outcome of this test for C=CC(=O)N1CCN([C@@H](CC2CC2)c2ccc([C@H](C)Nc3ncc4c(n3)N(CC)C(=O)OC4)cc2)CC1 ?
OUTPUT: 0
